# TESTED_TARGET: T1, MBP-tagged R1441C RocCOR LRRK2
# T1 chain: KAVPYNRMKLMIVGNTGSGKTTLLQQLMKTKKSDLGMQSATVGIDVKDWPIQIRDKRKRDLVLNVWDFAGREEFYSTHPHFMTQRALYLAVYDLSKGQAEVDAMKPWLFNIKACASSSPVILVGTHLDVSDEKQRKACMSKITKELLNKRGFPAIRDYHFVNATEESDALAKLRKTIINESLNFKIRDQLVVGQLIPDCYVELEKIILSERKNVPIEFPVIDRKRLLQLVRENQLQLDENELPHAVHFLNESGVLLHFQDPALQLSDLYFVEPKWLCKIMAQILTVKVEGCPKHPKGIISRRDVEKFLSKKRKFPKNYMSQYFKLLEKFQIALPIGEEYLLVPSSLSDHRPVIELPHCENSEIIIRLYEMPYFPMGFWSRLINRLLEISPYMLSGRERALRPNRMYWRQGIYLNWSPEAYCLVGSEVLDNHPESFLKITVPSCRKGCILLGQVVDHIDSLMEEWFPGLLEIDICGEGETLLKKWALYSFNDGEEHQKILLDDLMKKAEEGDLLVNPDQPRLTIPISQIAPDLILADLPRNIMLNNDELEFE
# EXPERIMENTAL_DETAILS: FP
pKd: −log10 of the molar value. Bridge positions count the residues as written; N and C are the ends. Square brackets hold non-standard residues; d marks the D form. Primed or numbered codes have the meaning given here. Ends that are not written are not given here. 5/6FAM = 5/6-carboxyfluorescein; S5 = C=CCCC[C@](C)(N)C(=O)O; PEG3′ = not defined here
Quick reference: pKd of the listed items.

# BINDER, pKd
rows = [
    ("{5/6FAM-PEG3′}-KGEGE[S5]LLK[S5]WGLYSFNDGEKH[S5]KKL[S5]KL (staple 6-10, 23-27) [FAM ECOR A12G (doubly stapled Elongated COR peptide with A12G)]", 7.49),
    ("{FAM-PEG3′}-KGEGE[S5]LLK[S5]WALYSFNDGEKH[S5]KKL[S5]KL (staple 6-10, 23-27) [FAM ECOR (doubly stapled Elongated COR peptide)]", 7.62),
]
